Sourced from PubChem BioAssay AID1159580

# TEST: chemical genetic growth profiling, strain panel (AID 1159580);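 note: tested at 20 µM; growth read once vehicle control cultures reached saturation at 30 °C; 1 = growth at the plate median or of vehicle wells; lower values mean less growth of the strain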
# CONDITION PARAMETERS: S. cerevisiae deletion strains, growth OD, locus YKL101W, strain HSL1, hits give low values
Out of some 5,500 compounds screened, about 2,000 (36%) were called active. About 18% were inconclusive and are not listed. Some of the results follow.
PARAMETER MEASURED: normalized growth
Give a plain numeric answer without units written out.

Param item = `FC(F)(F)c1cccc(-n2c(CSCc3cccc4ccccc34)n[nH]c2=S)c1` ; retrieve measured normalized growth.
0.986

Again, but for `O=C(Nc1ccc(OC(F)(F)F)cc1)OC1CN(C(c2ccccc2)c2ccccc2)C1`
0.982

Item: `O=[N+]([O-])c1ccc(Sc2ssc(=S)c2-c2ccccc2)nc1`
0.791

Can you handle `CC(C)(C)c1ccc(C(=O)Nc2ccc(C(F)(F)F)cc2)s1` next?
0.935

Param item: `FC(F)(F)c1ccnc(N2CCCN(C(=S)Nc3ccc(Cl)cc3Cl)CC2)n1`
0.958

Next compound: `O=C(Nc1ccc(OC(F)(F)F)cc1)N1CCN(c2nc(-c3ccccc3)ns2)CC1`
0.79

Continue with `N#CC(C#N)=Cc1ccc(-c2ccccc2C(F)(F)F)o1`
0.873

Now try `CC(=O)ON=C1c2cc([N+](=O)[O-])ccc2-c2ccc([N+](=O)[O-])cc21` .
0.761

Please do the same for `O=C(NNc1ccc(I)cc1)c1cc(Cl)cc(Cl)c1` as well.
0.842

Try O=[N+]([O-])c1ccc2oc(C(O)c3cccc(Cl)c3)cc2c1 (stereo unspecified) next.
0.934

And `Cc1c(C(=S)Nc2ccccc2)sc2ccccc12` ?
0.917

====

# TEST: chemical genetic growth profiling, strain panel (AID 1159580);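 note: tested at 20 µM; growth read once vehicle control cultures reached saturation at 30 °C; 1 = growth at the plate median or of vehicle wells; lower values mean less growth of the strain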
# CONDITION PARAMETERS: S. cerevisiae deletion strains, growth OD, locus YPR119W, strain clb2, hits give low values
Out of some 5,500 compounds screened, about 2,000 (36%) were called active. Not shown: some 18% with an inconclusive outcome. Some of the results follow.
For each of the molecules below, state its normalized growth.
API doc: respond with a numeric literal and nothing else, no unit.

# normalized growth lookup, item `O=C(O)c1ccccc1-c1c2cc(Br)c(=O)cc-2oc2[c]([Hg])c(O)c(Br)cc12`
0.0719

Same question for `Cc1cccc(Nc2ccccc2C(=O)O)c1C` please.
0.856

Now consider C[N+]1(C)C2CC(OC(=O)[C@@H](CO)c3ccccc3)CC1C1OC12 (stereo partly specified) .
1.01

Now try C[C@@H]1C(=O)OC2[C@H](O)C34[C@@H]5OC(=O)[C@@]3(O[C@@H]3OC(=O)[C@H](O)[C@@]34[C@H](C(C)(C)C)[C@H]5O)[C@]21O (stereo partly specified) .
1.01

Now give it for O=C1CC2OCC=C3CN4CC[C@]56c7ccccc7N1C5[C@H]2[C@H]3CC46 (stereo partly specified) too.
0.995

Same for C=C1C(=O)O[C@@H]2C3O[C@]3(C)CC/C=C(\C)CC[C@@H]12 (stereo partly specified)
0.908

Moving on to CC1(C)O[C@@H]2CC3C4CCC5=CC(=O)CCC5(C)C4(F)C(O)CC3(C)[C@]2(C(=O)CCl)O1 (stereo partly specified)
0.997

// next record `O=C1OC(c2ccc(O)cc2)(c2ccc(O)cc2)c2ccccc21`
0.98

Next up: `Cc1cccc(C(=O)O)c1O`
1.01

Proceed to NS(=O)(=O)c1cc2c(cc1Cl)NC(C(Cl)Cl)NS2(=O)=O (stereo unspecified)
1

Same question, `Cc1ccc(Cl)c(Nc2ccccc2C(=O)O)c1Cl` this time
0.87

What do you have for `CCN(CC)C(=O)c1cccc(C)c1` ?
1

Then what about the molecule `CCCCOC(=O)c1ccc(N)cc1` ?
0.949

Follow-up item: `CCCCNc1ccc(C(=O)OCCN(C)C)cc1`
1.01

Would you kindly repeat that for Nc1ccn(C2O[C@H](CO)[C@@H](O)[C@@H]2O)c(=O)n1 (stereo partly specified) ?
0.986

CC1=CC2C(CC1=O)C(C)=CCC2C(C)C (stereo unspecified) ?
0.978

Subsequent entry: CC1(C)C2CC(=O)[C@]3(C)C(CC[C@@]4(C)[C@H](c5ccoc5)OC(=O)[C@H]5O[C@]543)[C@@]2(C)C=C[C@@H]1O (stereo partly specified)
0.997

Further, for CO/N=C(\C(=O)NC1C(=O)N2C(C(=O)O)=C(COC(N)=O)CSC12)c1ccco1 (stereo unspecified) ?
0.0597

Entry `CC(=O)Oc1c(C)cccc1C(=O)O` please
1

Note, next up: `COc1c2ccoc2c(OC)c2oc(=O)ccc12`
0.997

What about this molecule? `CCCCCCOc1ccccc1C(N)=O`
0.625

Query CC(C)C(C)/C=C/C(C)[C@H]1CCC2C3=CCC4CC(=O)CC[C@]4(C)C3CC[C@@]21C (stereo partly specified) next
1.02

Please give the result for `Nc1nc2ncc(=O)[nH]c2c(=O)[nH]1` too.
0.974

And `Oc1ccc(Cl)cc1Cc1cc(Cl)ccc1O` ?
0.0612

Now this one: CC(=O)OC1CCC2(C)C(=CC=C3C2CCC2(C)C3CCC2C(C)/C=C/C(C)C(C)C)C1(C)C (stereo unspecified)
1

Try this molecule too: `O=c1cc[nH]c(=S)[nH]1`
1

Next molecule: CC(C)C(C)/C=C/C(C)C1CCC2C3=CC=C4CC(O)CCC4(C)C3CCC21C (stereo unspecified)
1.02

What do you have for `COc1ccc2c(c1)CCC(c1ccccc1)=C2c1ccc(OCCN2CCCC2)cc1` ?
0.774

Repeat for the following molecule: C=C1C(=O)OC2CC1C(OC(C)=O)C/C(C)=C/CC/C(C)=C/CC[C@]2(C)O (stereo partly specified)
1.01

Same question, `CC1(C)NC(=O)N(c2ccc([N+](=O)[O-])c(C(F)(F)F)c2)C1=O` this time
0.969

Similarly, CC(C)NCC(O)c1cc(O)cc(O)c1 (stereo unspecified) ?
0.984

Now consider CC(C(=O)O)c1ccc(C(=O)c2cccs2)cc1 (stereo unspecified) .
1.01

// next record O=C(C1CCCCC1)N1CC(=O)N2CCc3ccccc3C2C1 (stereo unspecified)
1

And `CC(C)(C)CC(C)(C)c1ccc(O)c(Cc2ccc(Cl)cc2Cl)c1` ?
1.01

Now consider `COc1ccc(CCN2CCC(Nc3nc4ccccc4n3Cc3ccc(F)cc3)CC2)cc1` .
0.988

Next record, please: `Cn1c(=O)c2[nH]cnc2n(C)c1=O`
0.986

And NC(CO)C(=O)NNCc1ccc(O)c(O)c1O (stereo unspecified) ?
0.999

// same read-out, input: `CCN(CC)CCOC(=O)c1ccc(N)cc1`
0.986

Same thing, different molecule: `CO/N=C(\C(=O)N[C@@H]1C(=O)N2C(C(=O)O)=C(COC(C)=O)CS[C@H]12)c1csc(N)n1`
0.991

`O=C(O)CN1C(=O)c2cccc3cccc(c23)C1=O` ?
0.987

What do you get for O=C1[C@H](CCC(O)c2ccc(F)cc2)[C@@H](c2ccc(O)cc2)N1c1ccc(F)cc1 (stereo partly specified) ?
0.984

Would you kindly repeat that for `NC(=O)c1cccc(N)c1` ?
0.988

Param item: `CCCCN(CCCC)CCCOC(=O)c1ccc(N)cc1`
0.969

Quick one: `Oc1ccc(Cl)cc1`
0.98

Also `OCc1ccccc1O` ?
0.986

Item: `CC(C)C(=O)Nc1ccc([N+](=O)[O-])c(C(F)(F)F)c1`
0.973
